test target: T1, REF6 ZnF1-4 (Arabidopsis thaliana, UniProt Q9STM3 1239-1360)
T1 sequence: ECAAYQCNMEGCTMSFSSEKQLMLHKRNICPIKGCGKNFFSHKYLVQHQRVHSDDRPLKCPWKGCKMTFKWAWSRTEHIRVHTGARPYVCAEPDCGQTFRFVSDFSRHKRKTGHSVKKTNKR
method: ITC; 20 uM ZnCl2; ITC: 20 mM Tris-HCl pH 7.5, 150 mM NaCl, 20 uM ZnCl2, 25 C; EMSA: 25 mM Tris-HCl pH 8.0, 100 mM NaCl, 2.5 mM MgCl2, 0.1% CA-630, 10% glycerol, 1 uM ZnSO4, 1 mM
cond: protein: recombinant; tags: GST removed by PreScission; blunt
measured quantity: pKd
Units for pKd: none; it is -log10 of a concentration expressed in mol/L.

[in] Which pKd is listed for NAC004P_5mC3 (dsDNA, 5mC at top strand position 5) DNA 1: TTCTCTGTTTTG DNA 2: CAAAACAGAGAA ?
[out] 6.96

[in] Same question, NAC004P 12-mer (dsDNA) DNA 1: TTCTCTGTTTTG DNA 2: CAAAACAGAGAA this time
[out] 7.13

[in] Same question, NAC004P_5mC1 (dsDNA, 5mC at top strand position 3) DNA 1: TTCTCTGTTTTG DNA 2: CAAAACAGAGAA this time
[out] 7.18
